- System: MDA-MB-468 breast
- protocol.details: NCI tumour cell line growth inhibition, 48 h
Classification by TGI follows these ranges: low = under 3 µM, intermediate = from 3 µM up to 20 µM, high = 20 µM and over

The following compounds have reported results that may help.
INSERT INTO measurements (compound, answer_label) VALUES
  ('Nc1nc2ccc([C@@H]3Nc4ccc5[nH]ncc5c4[C@H]4[C@H]5CCC(C5)[C@H]43)cc2s1', 'low'),
  ('Nc1ccc(C#Cc2cncnc2Nc2ccc(OCc3cccc(F)c3)c(Cl)c2)cc1', 'intermediate'),
  ('Nc1ccn([C@H]2C[C@@H](O)[C@@H](CO)S2)c(=O)n1', 'high'),
  ('Nc1nc2c(c3ncccc13)C(c1cccc(Cl)c1)Cc1ncccc1-2 (stereo unspecified)', 'high'),
  ('CN1CCN(CC(=O)Nc2ccc3ncnc(Nc4ccc(Oc5cccc(C(F)(F)F)c5)c(Cl)c4)c3c2)CC1', 'low'),
  ('C=C1CC[C@@H]2[C@]3(C)COC(c4ccco4)O[C@@H]3CC[C@@]2(C)[C@@H]1C/C=C1/C(=O)OCC1OC(C)=O (stereo partly specified)', 'high');

Exercise: read the entry N#C/C(=C\c1ccc(Br)cc1)n1nnc2cccc(F)c21 and state which class it falls under.
low

Which band does Cn1ccc(=Nc2ccc(NC(=O)c3ccc(N=c4ccn(C)c5ccc([N+](=O)[O-])cc45)cc3)cc2)cc1 fall in?
high

Lab note: which band did NC1=NC(c2ccccc2)N=C(Nc2ccccc2)N1 (stereo unspecified) land in?
high

Would you mind sorting COc1ccc(C2NCCc3c2[nH]c2ccccc32)cc1CN1CCN(c2ccc(F)cc2)CC1 (stereo unspecified) into the appropriate category?
intermediate

Which bin, given its TGI, does COc1ncc(-c2nc3c(n2C(C)C)[C@H](c2ccc(Cl)cc2)N(c2cc(Cl)cn(C)c2=O)C3=O)c(OC)n1 occupy?
high

Just checking, what class would you give COC(=O)c1c(C(=O)OC)c2ccc3c4ccccc4ccc3n2c1C(=O)C(C)Br (stereo unspecified) here?
high

Band assignment needed for Cc1ccc(N=C2CSc3nnc(-c4csc5c4CCCC5)n3N2)cc1 please.
high

Looking at COC(=O)[C@]12CC[C@@H](C)[C@H](C)[C@@H]1C1=CC[C@@H]3[C@@]4(C)C(C=O)=C[C@@](C)(COC(C)=O)[C@@H]4[C@H](O)C[C@@]3(C)[C@]1(C)CC2 , which class would you pick?
intermediate

Category of CCCCCCCCOc1ccc(/C=N/Nc2cc(C)nc3ccc(Cl)cc23)cc1 :
intermediate
